tgt: human galectin-1 (Gal-1, full length) (Homo sapiens, UniProt P09382)
Construct: Gal-1 is a prototype galectin consisting of a single CRD and was used in full length; 6xHis tag with TEV protease site (N, cleaved yes); made in house; host or cells: BL21 Escherichia coli (pET-15b)
Sequence (P09382 2-135): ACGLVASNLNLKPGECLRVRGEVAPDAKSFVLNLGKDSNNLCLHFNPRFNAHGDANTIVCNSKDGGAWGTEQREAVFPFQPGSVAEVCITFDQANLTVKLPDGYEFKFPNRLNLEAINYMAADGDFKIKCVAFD
experiment_notes: Competitive fluorescence polarization assay, Gal-1
Type: binding
condition_info: CSV supplement, unrounded mean; read-out: Gal1_IC50_mean_uM
reported_metric: IC50 (µM)

Past entries and their recorded results:
Q: Look up IC50 for this compound: CC(=O)N(c1ccc(C)cc1)[C@@H]1O[C@H](CO)[C@@H](O[C@@H]2O[C@H](CO)[C@H](O)[C@H](O)[C@H]2O)[C@H](O)[C@H]1O
Ans: 919

Q: Look up IC50 for this compound: CC(=O)N(c1cccc(CO)c1)[C@@H]1O[C@H](CO)[C@@H](O[C@@H]2O[C@H](CO)[C@H](O)[C@H](O)[C@H]2O)[C@H](O)[C@H]1O
Ans: 842

(1) COC(=O)c1cccc(N(C(C)=O)[C@@H]2O[C@H](CO)[C@@H](O[C@@H]3O[C@H](CO)[C@H](O)[C@H](O)[C@H]3O)[C@H](O)[C@H]2O)c1
(2) C#Cc1cccc(N(C(C)=O)[C@@H]2O[C@H](CO)[C@@H](O[C@@H]3O[C@H](CO)[C@H](O)[C@H](O)[C@H]3O)[C@H](O)[C@H]2O)c1
(3) CC(=O)c1c[nH]c2cc(C(=O)O)cc(N(C(C)=O)[C@@H]3O[C@H](CO)[C@@H](S[C@@H]4O[C@H](CO)[C@H](O)[C@H](n5cc(-c6cccc(F)c6)nn5)[C@H]4O)[C@H](O)[C@H]3O)c12
Q: Could you please order the items by IC50, going from the lowest number to the highest? Dear reader, please state the labels in the requested order.
Ans: 3, 1, 2
